# testTarget: Formate dehydrogenase (FDH, Candida boidinii) ([Candida] boidinii)
# Sequence (O13437 1-364): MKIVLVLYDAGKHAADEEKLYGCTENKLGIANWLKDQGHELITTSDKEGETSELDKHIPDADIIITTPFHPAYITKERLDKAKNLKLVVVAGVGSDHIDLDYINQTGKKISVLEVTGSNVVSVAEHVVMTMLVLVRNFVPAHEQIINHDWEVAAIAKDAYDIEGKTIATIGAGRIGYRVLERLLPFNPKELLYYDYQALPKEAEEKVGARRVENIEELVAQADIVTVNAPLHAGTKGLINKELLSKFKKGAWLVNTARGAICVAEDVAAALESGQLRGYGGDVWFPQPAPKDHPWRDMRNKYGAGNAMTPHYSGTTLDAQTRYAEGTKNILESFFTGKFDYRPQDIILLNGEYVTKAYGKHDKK
measuredMetric: pKd
pKd here: minus log base 10 of the concentration, concentration in moles per litre.

Request: Bench note: what pKd did [N-]=[N+]=NCc1ccc[n+]([C@@H]2O[C@H](COP(=O)(O)OP(=O)(O)OC[C@H]3O[C@@H](n4cnc5c(N)ncnc54)[C@H](O)[C@@H]3O)[C@@H](O)[C@H]2O)c1 [PAAD^+] show?
Result: 5.15

Just for reference, paper PMC3260785 is where these values come from.
